# System: HeLa
# test-protocol: Cytotoxicity against human HeLa cells after 24 hrs by MTT assay
# Assay type: functional, cell-based
experimental-readout: pIC50
Just so you know, pIC50 here is -log10 of the concentration in molar units; reply with that number alone.

Give pIC50 for `CC(=O)OC[C@@]1(C)[C@@H]2CC[C@]3(C)[C@H](CC=C4[C@H]5[C@](C(=O)NCCO)(CC[C@@H](C)[C@@]5(C)O)CC[C@]43C)[C@@]2(C)CC[C@@H]1OC(C)=O`
5.55

Give pIC50 for `CC(=O)OCCCNC(=O)[C@]12CC[C@@H](C)[C@@](C)(O)[C@H]1C1=CC[C@@H]3[C@@]4(C)CC[C@H](OC(C)=O)[C@@](C)(COC(C)=O)[C@@H]4CC[C@@]3(C)[C@]1(C)CC2`
5.37

Give pIC50 for CC(=O)OCC(C)NC(=O)[C@]12CC[C@@H](C)[C@@](C)(O)[C@H]1C1=CC[C@@H]3[C@@]4(C)CC[C@H](OC(C)=O)[C@@](C)(COC(C)=O)[C@@H]4CC[C@@]3(C)[C@]1(C)CC2 (stereo not given in full)
5.28

Give pIC50 for `CC(=O)OC[C@@]1(C)[C@@H]2CC[C@]3(C)[C@H](CC=C4[C@H]5[C@](C(=O)O)(CC[C@@H](C)[C@@]5(C)O)CC[C@]43C)[C@@]2(C)CC[C@@H]1OC(C)=O`
4.88

====

Would you mind telling me the reported IC50 of each entry?
# Tested on: NCI-H446
# test-protocol: Cytotoxicity against human NCI-H446 cells after 24 hrs by MTT assay
# Format: functional, cell-based
# measurement-parameters: NCI-H446, 24 h
Reply numerically in µM, unit not repeated.

Give IC50 for `CC(=O)OCCNC(=O)[C@]12CC[C@@H](C)[C@@](C)(O)[C@H]1C1=CC[C@@H]3[C@@]4(C)CC[C@H](OC(C)=O)[C@@](C)(COC(C)=O)[C@@H]4CC[C@@]3(C)[C@]1(C)CC2`
18.6

Give IC50 for CC(=O)OC[C@@]1(C)[C@@H]2CC[C@]3(C)[C@H](CC=C4[C@H]5[C@](C(=O)NC(C)CO)(CC[C@@H](C)[C@@]5(C)O)CC[C@]43C)[C@@]2(C)CC[C@@H]1OC(C)=O (stereo not given in full)
5.51

Give IC50 for `CC(=O)OC[C@@]1(C)[C@@H]2CC[C@]3(C)[C@H](CC=C4[C@H]5[C@](C(=O)NCCCO)(CC[C@@H](C)[C@@]5(C)O)CC[C@]43C)[C@@]2(C)CC[C@@H]1OC(C)=O`
5.08

Give IC50 for `C[C@@H]1CC[C@]2(C(=O)NCCO)CC[C@]3(C)C(=CC[C@@H]4[C@@]5(C)CC[C@H](O)[C@@](C)(CO)[C@@H]5CC[C@]43C)[C@@H]2[C@]1(C)O`
24.7

Give IC50 for CC(=O)OCC(C)NC(=O)[C@]12CC[C@@H](C)[C@@](C)(O)[C@H]1C1=CC[C@@H]3[C@@]4(C)CC[C@H](OC(C)=O)[C@@](C)(COC(C)=O)[C@@H]4CC[C@@]3(C)[C@]1(C)CC2 (stereo not given in full)
14.7

Give IC50 for `C[C@@H]1CC[C@]2(C(=O)Nc3ccccc3CO)CC[C@]3(C)C(=CC[C@@H]4[C@@]5(C)CC[C@H](O)[C@@](C)(CO)[C@@H]5CC[C@]43C)[C@@H]2[C@]1(C)O`
14

Give IC50 for `CC(=O)OCc1ccccc1NC(=O)[C@]12CC[C@@H](C)[C@@](C)(O)[C@H]1C1=CC[C@@H]3[C@@]4(C)CC[C@H](OC(C)=O)[C@@](C)(COC(C)=O)[C@@H]4CC[C@@]3(C)[C@]1(C)CC2`
69.7

Give IC50 for `C[C@@H]1CC[C@]2(C(=O)O)CC[C@]3(C)C(=CC[C@@H]4[C@@]5(C)CC[C@H](O)[C@@](C)(CO)[C@@H]5CC[C@]43C)[C@@H]2[C@]1(C)O`
11.4

Give IC50 for `CC(=O)OC[C@@]1(C)[C@@H]2CC[C@]3(C)[C@H](CC=C4[C@H]5[C@](C(=O)NCc6ccccc6)(CC[C@@H](C)[C@@]5(C)O)CC[C@]43C)[C@@]2(C)CC[C@@H]1OC(C)=O`
26.9

====

Would you mind telling me the reported IC50 of each entry?
# Tested on: HeLa
# test-protocol: Cytotoxicity against human HeLa cells after 24 hrs by MTT assay
# Assay type: functional, cell-based
The reply should consist of the numeric value with the unit placed after it.

GET IC50 where system = HeLa and item = `CC(=O)OCc1ccccc1NC(=O)[C@]12CC[C@@H](C)[C@@](C)(O)[C@H]1C1=CC[C@@H]3[C@@]4(C)CC[C@H](OC(C)=O)[C@@](C)(COC(C)=O)[C@@H]4CC[C@@]3(C)[C@]1(C)CC2`
4.27 µM

GET IC50 where system = HeLa and item = `C[C@@H]1CC[C@]2(C(=O)Nc3ccccc3CO)CC[C@]3(C)C(=CC[C@@H]4[C@@]5(C)CC[C@H](O)[C@@](C)(CO)[C@@H]5CC[C@]43C)[C@@H]2[C@]1(C)O`
12.3 µM

GET IC50 where system = HeLa and item = `CC(=O)OC[C@@]1(C)[C@@H]2CC[C@]3(C)[C@H](CC=C4[C@H]5[C@](C(=O)NCCCO)(CC[C@@H](C)[C@@]5(C)O)CC[C@]43C)[C@@]2(C)CC[C@@H]1OC(C)=O`
6.97 µM
